- protocol notes: NCI Yeast Anticancer Drug Screen. Data for the sgs1 strain (AID 173);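 also: 0% = growth of vehicle-only control cultures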
- condition set: S. cerevisiae sgs1 mutant, at 1.2 µM, stronger effect = higher value
Compounds without any hit were thinned out: in the full panel of roughly 79,000, 15% have a hit.
measured property: growth inhibition (%)
Numbers only; they are read as %.

| compound | growth inhibition / % |
| --- | --- |
| CN(N=O)N1C(=O)SCC(c2ccccc2)(c2ccccc2)C1=O | -1 |
| COc1ccccc1N=NC(C(=O)c1ccccc1)C(=O)c1ccccc1 | -37 |
| COC(=O)C1=C(C)NC(C)=C(C(=O)OCCCN2CCC(c3ccccc3)(c3ccccc3)CC2)C1c1cccc([N+](=O)[O-])c1 (centres undefined) | -3 |
| N#CN1C2CCC1CC(=O)C2 | -17 |
| S=C(Nc1ccc(Cl)c(Cl)c1)SCc1ccc2c(c1)OCO2 | 6 |

# growth inhibition lookup, item "COc1ccc2sc3cccc(NCCN(C)C)c3c(=O)c2c1"
2

growth inhibition for "BrCc1cccc2ccc3cccc(CBr)c3c12" ?
-3

Tell me the measured growth inhibition of "N#C/C(=C\c1cccc(OCc2ccccc2)c1)c1ccc([N+](=O)[O-])cc1" , please.
-39

Please report the recorded growth inhibition for "CNC(=O)OCc1c(COC(=O)NC)c(-c2ccc(Cl)c(Cl)c2)n2c1CCC2" .
-11

Field request: growth inhibition | item: "CCCCCCCCCCC(=O)Cl"
18
